molecular target: hPR (Homo sapiens, UniProt P06401); test: hPR cotransfection assay in CV-1 cells, agonist mode; type: cell-based; settings: Tables 3 and 4, values without footnote; read-out: hPR agonist potencies (EC50 in nM) in the cotransfection assay
Sequence (P06401 whole entry): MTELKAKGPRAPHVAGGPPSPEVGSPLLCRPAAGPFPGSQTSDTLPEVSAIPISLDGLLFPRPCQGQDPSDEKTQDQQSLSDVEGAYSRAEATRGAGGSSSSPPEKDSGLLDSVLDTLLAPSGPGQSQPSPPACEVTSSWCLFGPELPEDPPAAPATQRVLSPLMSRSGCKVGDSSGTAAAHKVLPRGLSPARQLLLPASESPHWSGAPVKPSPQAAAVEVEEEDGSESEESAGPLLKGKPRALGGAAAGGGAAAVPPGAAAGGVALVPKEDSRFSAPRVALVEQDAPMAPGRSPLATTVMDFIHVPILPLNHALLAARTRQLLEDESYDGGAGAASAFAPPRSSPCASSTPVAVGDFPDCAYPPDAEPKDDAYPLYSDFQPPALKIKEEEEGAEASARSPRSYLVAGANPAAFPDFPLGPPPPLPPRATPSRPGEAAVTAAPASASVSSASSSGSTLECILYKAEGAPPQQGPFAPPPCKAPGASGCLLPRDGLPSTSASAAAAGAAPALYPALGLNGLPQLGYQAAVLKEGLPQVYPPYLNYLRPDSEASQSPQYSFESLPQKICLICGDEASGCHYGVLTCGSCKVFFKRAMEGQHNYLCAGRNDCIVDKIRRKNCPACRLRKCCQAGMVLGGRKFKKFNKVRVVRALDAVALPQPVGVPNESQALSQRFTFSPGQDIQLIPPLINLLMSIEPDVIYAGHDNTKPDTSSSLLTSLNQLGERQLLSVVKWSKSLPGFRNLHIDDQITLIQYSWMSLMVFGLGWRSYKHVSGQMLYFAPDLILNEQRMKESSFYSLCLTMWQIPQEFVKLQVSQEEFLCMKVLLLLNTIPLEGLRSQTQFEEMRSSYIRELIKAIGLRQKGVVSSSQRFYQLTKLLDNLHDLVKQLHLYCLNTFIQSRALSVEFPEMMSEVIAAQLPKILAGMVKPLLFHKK
Recorded metric: EC50 (nM)
Give bare numbers, in nM.

[
  {
    "Compound": "CC1=CC(C)(C)Nc2ccc3c(c21)/C(=C/c1cccc(F)c1)Oc1ccc(C)cc1-3 [Formula II X=9-Me 3-F-Ph, reference compound]",
    "EC50 / nM": 7.95
  },
  {
    "Compound": "CCCCC1Oc2c(F)cc(F)cc2-c2ccc3c(c21)C(C)=CC(C)(C)N3 (racemic)",
    "EC50 / nM": 15
  },
  {
    "Compound": "CC1=CC(C)(C)Nc2ccc3c(c21)/C(=C/c1cc(F)ccc1F)Oc1ccc(Cl)cc1-3 [Formula II X=9-Cl 2,5-diF-Ph, reference compound]",
    "EC50 / nM": 25
  },
  {
    "Compound": "CC1=CC(C)(C)Nc2ccc3c(c21)/C(=C/c1cc(F)ccc1C)Oc1ccc(F)cc1-3 [Formula II X=9-F 2-Me-5-F-Ph, reference compound]",
    "EC50 / nM": 2.1
  },
  {
    "Compound": "CC1=CC(C)(C)Nc2ccc3c(c21)/C(=C/c1cc(F)ccc1C)Oc1ccc(Cl)cc1-3 [Formula II X=9-Cl 2-Me-5-F-Ph, reference compound]",
    "EC50 / nM": 2.1
  },
  {
    "Compound": "CC1=CC(C)(C)Nc2ccc3c(c21)C(c1ccc2c(c1)OCO2)Oc1ccccc1-3 (centres unmarked) [Formula I X=H Benzodioxol-5-yl, reference compound]",
    "EC50 / nM": 48
  }
]

// input: 8 compounds below; output: EC50 for each
1. CC1=CC(C)(C)Nc2ccc3c(c21)/C(=C/c1ccccc1C)Oc1c(F)cc(F)cc1-3
2. COc1ccc2c(c1)-c1ccc3c(c1C(c1cccc(C)c1)O2)C(C)=CC(C)(C)N3 (centres unmarked) [Formula I X=9-OMe 3-Me-Ph, reference compound]
3. CC1=CC(C)(C)Nc2ccc3c(c21)C(c1cccc(C(F)(F)F)c1)Oc1c(F)cc(F)cc1-3 (racemic)
4. CC1=CC(C)(C)Nc2ccc3c(c21)C(c1cccc(C)c1)Oc1ccc(C)cc1-3 (centres unmarked) [Formula I X=9-Me 3-Me-Ph, reference compound]
5. CC1=CC(C)(C)Nc2ccc3c(c21)/C(=C/c1ccccc1C)Oc1ccc(Cl)cc1-3 [Formula II X=9-Cl 2-Me-Ph, reference compound]
6. CC1=CC(C)(C)Nc2ccc3c(c21)/C(=C/c1cccc(F)c1)Oc1ccc(Cl)cc1-3 [Formula II X=9-Cl 3-F-Ph, reference compound]
7. COc1ccc2c(c1)O/C(=C\c1ccccc1C)c1c-2ccc2c1C(C)=CC(C)(C)N2 [Formula II X=8-OMe 2-Me-Ph, reference compound]
8. COc1ccc(F)cc1/C=C1\Oc2c(F)cc(F)cc2-c2ccc3c(c21)C(C)=CC(C)(C)N3

(A)
1: 1.66; 2: 11; 3: 1.6; 4: 44; 5: 8.5; 6: 11.6; 7: 3.5; 8: 0.6

Lab note: each compound below needs its EC50 filled in.
1. CC1=CC(C)(C)Nc2ccc3c(c21)/C(=C/c1cccc(F)c1C)Oc1c(F)cc(F)cc1-3
2. CC1=CC(C)(C)Nc2ccc3c(c21)/C(=C/c1ccncc1C)Oc1c(F)cc(F)cc1-3
3. CC1=CC(C)(C)Nc2ccc3c(c21)/C(=C/c1cc(F)ccc1C)Oc1cc(F)c(F)cc1-3 [Formula II X=8,9-diF 2-Me-5-F-Ph, reference compound]
4. CC1=CC(C)(C)Nc2ccc3c(c21)/C(=C/c1ccncc1)Oc1c(F)cc(F)cc1-3
5. CC1=CC(C)(C)Nc2ccc3c(c21)/C(=C/c1cccs1)Oc1c(F)cc(F)cc1-3
6. CC1=CC(C)(C)Nc2ccc3c(c21)/C(=C/c1ccccc1F)Oc1ccc(Cl)cc1-3 [Formula II X=9-Cl 2-F-Ph, reference compound]
7. CC1=CC(C)(C)Nc2ccc3c(c21)/C(=C/c1ccccc1)Oc1c(Cl)cccc1-3 [Formula II X=7-Cl Phenyl, reference compound]
8. COc1ccc(F)cc1/C=C1\Oc2ccc(O)cc2-c2ccc3c(c21)C(C)=CC(C)(C)N3 [Formula II X=9-OH 2-MeO-5-F-Ph, reference compound]

(A)
8.2
2.8
3.95
7.4
2.7
26.5
6.2
11.5

Can you give me EC50 for all of these, one by one?
1. CCC1Oc2ccc(F)cc2-c2ccc3c(c21)C(C)=CC(C)(C)N3 (centres unmarked) [Formula I X=9-F Et, reference compound]
2. CC1=CC(C)(C)Nc2ccc3c(c21)/C(=C/c1ccncc1C)Oc1ccc(F)cc1-3 [Formula II X=9-F 3-Me-4-pyridinyl, reference compound]
3. COc1ccc2c(c1)-c1ccc3c(c1/C(=C/c1ccccc1)O2)C(C)=CC(C)(C)N3 [Formula II X=9-OMe Phenyl, reference compound]
4. CC1=CC(C)(C)Nc2ccc3c(c21)C(c1ccc2c(c1)OCO2)Oc1c(F)cc(F)cc1-3 (racemic)

(A)
1: 9; 2: 2; 3: 67; 4: 3.85
